fold induction at 50 µM overview
Test system: E. faecium
Test: AK assay 384-well format, Prestwick library screening
Assay type: cell-based, Enterococcus faecium
Conditions: Enterococcus faecium, 3 h, planktonic E. faecium; 50 μM final drug concentration; 384-well; […]; read-out: AK-based Prestwick Library Screening Results: E. faecium (increase in extracellular AK activity)
Where a name gives a salt, the structure may show the parent alone.
Field format: numeric only.

Below, each entry is followed by its recorded fold induction at 50 µM result.
| compound | experimental.system | test.value |
| --- | --- | --- |
| COP(=O)(OC)C(O)C(Cl)(Cl)Cl (stereo not drawn) [Trichlorfon] | E. faecium | 0.8 |
| CN(C)CCC(c1ccccc1)c1ccccn1 (stereo not drawn) [Pheniramine maleate] | E. faecium | 1 |
| COC(=O)C1=CCCN(C)C1 [Arecoline hydrobromide] | E. faecium | 0.9 |

For reference, reported fold induction at 50 µM for CCC(=O)O[C@H]1CC[C@H]2[C@@H]3CCC4=CC(=O)CC[C@]4(C)[C@H]3CC[C@]12C [Testosterone propionate] stands at 0.9

For reference, reported fold induction at 50 µM for CCOC(=O)[C@H](CCc1ccccc1)N[C@@H](C)C(=O)N1CCC[C@H]1C(=O)O [Enalapril maleate] stands at 1.1

For reference, reported fold induction at 50 µM for Cc1ccsc1/C=C/C1=NCCCN1C [Morantel tartrate] stands at 0.8

----------
Tested on: K. pneumoniae
Assay: AK assay 384-well format, Prestwick library screening
Type: cell-based, Klebsiella pneumoniae
Conditions: Klebsiella pneumoniae, 3 h; planktonic K. pneumoniae; 50 μM final drug concentration; positive cutoff 3-fold increase; read-out: AK-based Prestwick library screening result, K. pneumoniae (fold increase in extracellular AK activity)
measurement.type: fold induction at 50 µM
Field format: numeric only.

// assay K. pneumoniae, entry CCCCC[C@H](O)/C=C/[C@H]1[C@H](O)CC(=O)[C@@H]1CCCCCCC(=O)O [Alprostadil] , fold induction at 50 µM value = 1.1

// assay K. pneumoniae, entry CC1(C)S[C@@H]2[C@H](NC(=O)[C@H](C(=O)O)c3ccsc3)C(=O)N2[C@H]1C(=O)O [Ticarcillin sodium] , fold induction at 50 µM value = 0.7

// assay K. pneumoniae, entry CO[C@H]1/C=C/O[C@@]2(C)Oc3c(C)c(O)c4c(c3C2=O)C2=NC3(CCN(CC(C)C)CC3)NC2=C(NC(=O)/C(C)=C\C=C\[C@H](C)[C@H](O)[C@@H](C)[C@@H](O)[C@@H](C)[C@H](OC(C)=O)[C@@H]1C)C4=O [Rifabutin] , fold induction at 50 µM value = 1.3

----------
Tested on: Enterobacter cloacae PMD1001
Test: AK assay 96-well format
Format: cell-based
Details: treatment 0.5×MIC
measurement.type: Fold increase in AK signal (fold)
# number only, unit fold dropped from output

Below, each entry is followed by its recorded Fold increase in AK signal result.
| compound | unit.string | test.value |
| --- | --- | --- |
| C[C@@H](O)[C@H]1C(=O)N2C(C(=O)O)=C(S[C@@H]3CN[C@H](C(=O)N(C)C)C3)[C@H](C)[C@H]12 [Meropenem, meropenem] | fold | 99 |
| CN(C)c1ccc(O)c2c1C[C@H]1C[C@H]3[C@H](N(C)C)C(O)=C(C(N)=O)C(=O)[C@@]3(O)C(O)=C1C2=O [Minocycline, minocycline] | fold | 4 |
| CO/N=C(\C(=O)N[C@@H]1C(=O)N2C(C(=O)O)=C(CSc3nc(=O)c(=O)[nH]n3C)CS[C@H]12)c1csc(N)n1 [Ceftriaxone, ceftriaxone] | fold | 20 |

Let us move to another entry and its Fold increase in AK signal.
For reference, reported Fold increase in AK signal for NC[C@H]1O[C@H](O[C@H]2[C@H](O)[C@@H](O[C@H]3O[C@H](CO)[C@@H](O)[C@H](N)[C@H]3O)[C@H](N)C[C@@H]2N)[C@H](O)[C@@H](O)[C@@H]1O [Kanamycin, kanamycin] stands at 1

----------
System: E. cloacae
Experiment: AK assay 384-well format, Prestwick library screening
Format: cell-based, Enterobacter cloacae
Details: Enterobacter cloacae, 3 h; 50 μM final drug concentration; 384-well format; cutoff for positive-scoring molecules 3-fold increase; read-out: AK-based Prestwick Library Screening Results, E. cloacae (increase in extracellular AK activity)
Counter-ions that a name gives are not always drawn.
fold induction at 50 µM overview
Field format: numeric only.

| compound | fold induction at 50 µM |
| --- | --- |
| N=C(N)N/N=C/c1c(Cl)cccc1Cl [Guanabenz acetate] | 0.7 |
| CC1=C(/C=C/C(C)=C/C=C/C(C)=C/C(=O)O)C(C)(C)CCC1 | 0.9 |
| Cc1c(-c2ccccc2)oc2c(C(=O)OCCN3CCCCC3)cccc2c1=O [Flavoxate hydrochloride] | 0.6 |
| NC[C@H]1CC[C@H](C(=O)O)CC1 | 0.9 |

Let us move to another entry and its fold induction at 50 µM.
For reference, reported fold induction at 50 µM for CCn1cc(C(=O)O)c(=O)c2cc3c(cc21)OCO3 stands at 4.3

----------
System: E. coli
Experiment: AK assay 384-well format, Prestwick library screening
Format: cell-based, Escherichia coli
Conditions: Escherichia coli, 3 h; 50 μM final drug concentration; cutoff for positive-scoring molecules 3-fold increase; read-out: AK-based Prestwick Library Screening Results, E. coli (fold increase in extracellular AK activity)
Counter-ions that a name gives are not always drawn.
measurement.type: fold induction at 50 µM
Field format: numeric only.

| compound | experimental.system | test.value |
| --- | --- | --- |
| Cn1cc[nH]c1=S | E. coli | 1.2 |
| CC(C)(C)NC(=O)[C@H]1CC[C@H]2[C@@H]3CC[C@H]4NC(=O)C=C[C@]4(C)[C@H]3CC[C@]12C [Finasteride] | E. coli | 1.1 |
| CC(=O)O[C@]1(C(C)=O)CC[C@H]2[C@@H]3C=C(C)C4=CC(=O)CC[C@]4(C)[C@H]3CC[C@@]21C [Megestrol acetate] | E. coli | 1.1 |

Let us move to another entry and its fold induction at 50 µM.
For reference, reported fold induction at 50 µM for Cc1cc(C)nc(NS(=O)(=O)c2ccc(N)cc2)n1 [Sulfamethazine sodium salt] stands at 1

----------
System: E. coli
Experiment: AK assay 384-well format, Prestwick library screening
Type: cell-based, Escherichia coli
Conditions: Escherichia coli, 3 h; 50 μM final drug concentration; cutoff for positive-scoring molecules 3-fold increase; read-out: AK-based Prestwick Library Screening Results, E. coli (fold increase in extracellular AK activity)
Structures can show the parent of a compound that is named as a salt.
measurement.type: fold induction at 50 µM
Field format: numeric only.

Below, each entry is followed by its recorded fold induction at 50 µM result.
| compound | experimental.system | fold induction at 50 µM |
| --- | --- | --- |
| Cc1ccc(C(=O)c2ccc(CC(=O)O)n2C)cc1 [Tolmetin sodium salt dihydrate] | E. coli | 0.9 |
| Cc1oncc1C(=O)Nc1ccc(C(F)(F)F)cc1 [Leflunomide] | E. coli | 0.8 |
| c1ccc2c(c1)CCCC2C1=NCCN1 (centres unmarked) [Tetrahydrozoline hydrochloride] | E. coli | 1.4 |
| Cn1cnc2c1c(=O)[nH]c(=O)n2C [Theobromine] | E. coli | 1.2 |

For reference, reported fold induction at 50 µM for O=C(NCC(O)CO)c1c(I)c(C(=O)NCC(O)CO)c(I)c(N(CCO)C(=O)CO)c1I (centres unmarked) [Ioversol] stands at 1.2

----------
System: E. coli
Assay: AK assay 384-well format, Prestwick library screening
Assay type: cell-based, Escherichia coli
Settings: Escherichia coli, 3 h; planktonic E. coli; 50 μM final drug concentration; positive cutoff 3-fold increase; read-out: AK-based Prestwick library screening result, E. coli (fold increase in extracellular AK activity)
Structures can show the parent of a compound that is named as a salt.
Note to self: fold induction at 50 µM under 1 means Yes, ties and anything higher get No.

Below are worked cases with known answers.
| compound | qualitative.label |
| --- | --- |
| Cc1cccc(C)c1NC(=O)C(C)N (stereo not drawn) [Tocainide hydrochloride] | No |
| CCCCC[C@H](O)/C=C/[C@H]1[C@H](O)CC(=O)[C@@H]1CCCCCCC(=O)O [Alprostadil] | No |
| CC(C)(Oc1ccc(C2CC2(Cl)Cl)cc1)C(=O)O (stereo not drawn) [Ciprofibrate] | Yes |
| CCCNC(C)C(=O)Nc1c(C)csc1C(=O)OC (stereo not drawn) [Articaine hydrochloride] | No |
| CC(=O)O[C@]1(C(C)=O)CC[C@H]2[C@@H]3C=C(C)C4=CC(=O)CC[C@@H]4[C@H]3CC[C@@]21C [Nomegestrol acetate] | No |

Below 1 on fold induction at 50 µM? Entry COc1ccccc1OCC(O)CN1CCN(CC(=O)Nc2c(C)cccc2C)CC1 (stereo not drawn) [Ranolazine] No

Below 1 on fold induction at 50 µM? Entry Cc1cccc(Nc2ccncc2S(=O)(=O)NC(=O)NC(C)C)c1 [Torsemide] No

Below 1 on fold induction at 50 µM? Entry CCC[C@H](N[C@@H](C)C(=O)N1[C@H](C(=O)O)C[C@@H]2CCCC[C@@H]21)C(=O)OCC [Perindopril] No
